Experiment: DRUGMATRIX: Phosphodiesterase PDE3 enzyme inhibition (substrate: [3H]cAMP + cAMP)
Assay type: tissue-based, Homo sapiens
Conditions: platelet; Not Active = under 50% inhibition at 10 µM
measurement.kind: Ki

CCOc1nc2cccc(C(=O)O)c2n1Cc1ccc(-c2ccccc2-c2nnn[nH]2)cc1 = Not Active
C[C@@H]1O[C@@H](O[C@H]2C[C@@H](O)[C@]3(CO)[C@H]4[C@H](O)C[C@]5(C)[C@@H](C6=CC(=O)OC6)CC[C@]5(O)[C@@H]4CC[C@]3(O)C2)[C@H](O)[C@H](O)[C@H]1O [OUABAIN] = Not Active
CCN(C(C)=O)c1cccc(-c2ccnc3c(C#N)cnn23)c1 [ZALEPLON] = Not Active
Cc1ccc(C)c(OCCCC(C)(C)C(=O)O)c1 [GEMFIBROZIL] = Not Active
